Listed here are compounds together with their documented human Plasma stability.
Measurement Protocol: Plasma Stability
Type: in vitro ADME, human
Assay Setup: % remaining at 1 h in human plasma
# number only, unit % remaining dropped from output

Looking for the measured human Plasma stability of `CC(C)OCCn1c(=S)[nH]c(=O)c2c1ccn2COC(=O)CCNC(=O)[C@@H]1CCC(=O)N1C.O=C(O)C(F)(F)F` , can you help?
76

Next entry: `CC(C)OCCn1c(=S)[nH]c(=O)c2c1ccn2COC(=O)CCCCNC(=O)CN(C)C(=O)OC(C)(C)C.O=C(O)C(F)(F)F`
0

Next entry: `CSCC[C@H](N)C(=O)NCCC(=O)OCn1ccc2c1c(=O)[nH]c(=S)n2CCOC(C)C.O=C(O)C(F)(F)F`
17

Next entry: `CC(C)OCCn1c(SCOC(=O)C2CCNCC2)nc(=O)c2c1ccn2COC(=O)CCC(=O)O`
7

Next entry: `CC(C)OCCn1c(=S)[nH]c(=O)c2c1ccn2COC(=O)CCNC(=O)[C@@H](N)CO.O=C(O)C(F)(F)F`
5

Next entry: `CC(C)OCCn1c(=S)[nH]c(=O)c2c1ccn2COC(=O)CCCCNC(=O)[C@H](Cc1ccccc1)NC(=O)OCC1c2ccccc2-c2ccccc21.O=C(O)C(F)(F)F`
74

Next entry: COC(=O)N1CCCC1C(=O)NCCC(=O)OCn1ccc2c1c(=O)[nH]c(=S)n2CCOC(C)C.O=C(O)C(F)(F)F (stereo not shown)
37

Next entry: `CC(C)C[C@H](NC(=O)OC(C)(C)C)C(=O)NCCC(=O)OCn1ccc2c1c(=O)[nH]c(=S)n2CCOC(C)C`
91

Next entry: `CC(C)OCCn1c(=S)[nH]c(=O)c2c1ccn2COC(=O)CCNC(=O)[C@@H]1CCC(=O)N1C(=O)OCc1ccccc1.O=C(O)C(F)(F)F`
38

Next entry: `CC(C)OCCn1c(=S)[nH]c(=O)c2c1ccn2COC(=O)CCCCNC(=O)[C@@H](N)Cc1c[nH]c2ccccc12.O=C(O)C(F)(F)F`
2

###

Measurement Protocol: Stability in Simulated Gastric Fluid (SGF)
Type: in vitro ADME
Parameters: key: % parent compound remaining relative to 0-minute sample
Assay Setup: simulated gastric fluid, remaining at 1 h
Metric Name: SGF (% remaining)
# number only, unit % remaining dropped from output

{"Smiles Notation": "CC(C)C[C@H](N)C(=O)OCCC(=O)OCn1ccc2c1c(=O)[nH]c(=S)n2CCOC(C)C.O=C(O)C(F)(F)F", "Recorded Number": 100}

Looking for the measured SGF of `CC(C)OCCn1c(=S)n(COC(=O)CCCOC(=O)[C@H](N)C(C)C)c(=O)c2c1ccn2COC(=O)CCCOC(=O)[C@H](N)C(C)C.O=C(O)C(F)(F)F.O=C(O)C(F)(F)F` , can you help?
46

Next entry: `CC(C)OCCn1c(SCOC(=O)CCCOC(=O)[C@H](NC(=O)OC(C)(C)C)C(C)C)nc(=O)c2c1ccn2COC(=O)CCCOC(=O)[C@H](NC(=O)OC(C)(C)C)C(C)C`
98

###

Measurement Protocol: Stability in Simulated Intestinal Fluid (SIF)
Type: in vitro ADME
Design: key: % parent compound remaining relative to 0-minute sample
Assay Setup: % remaining at 1 h; SIF with pancreatin pH 6.8, 2 μg/mL, 37° C.
Metric Name: SIF (%)
# number only, unit % dropped from output

Before answering, review these 4 worked examples.
{"Compound": "CC(C)OCCn1c(SC(C)OC(=O)N(C(C)C)C(C)C)nc(=O)c2[nH]ccc21 (stereo not shown) [Example 208]", "SIF (%)": 93}
{"Compound": "CC(C)OCCn1c(=S)[nH]c(=O)c2c1ccn2COC(=O)CCNC(=O)[C@@H](NC(=O)OC(C)(C)C)C(C)C [Example 11]", "SIF (%)": 69}
{"Compound": "CC(C)OCCn1c(=S)n2c(=O)c3c1ccn3COC(=O)CCCCCCC(=O)OC2 [Example 134]", "SIF (%)": 1}
{"Compound": "CC(C)OCCn1c(=S)[nH]c(=O)c2c1ccn2C(=O)NC(C)(C)C [Example 229]", "SIF (%)": 76}

Looking for the measured SIF of CC(C)OCCn1c(=S)[nH]c(=O)c2c1ccn2C(C)OC(=O)OC1CCN(C(=O)OC(C)(C)C)CC1 (stereo not shown) [Example 99] , can you help?
0

Next entry: CC(C)OCCn1c(=S)[nH]c(=O)c2c1ccn2C(C)OC(=O)N(CC(F)(F)F)CC(F)(F)F (stereo not shown) [Example 112]
100

Next entry: CC(C)OCCn1c(=S)[nH]c(=O)c2c1ccn2COC(=O)N[C@H](C(=O)OC(C)(C)C)C(C)C [Example 107]
92

Next entry: CC(C)OCCn1c(=S)[nH]c(=O)c2c1ccn2COC(=O)[C@@H]1CCCN1C(=O)OC(C)(C)C [Example 1]
94

Next entry: COC(=O)[C@H](CCCCNC(=O)[C@@H](N)C(C)C)NC(=O)OCn1ccc2c1c(=O)[nH]c(=S)n2CCOC(C)C.O=C(O)C(F)(F)F [Example 114]
89

Next entry: CC(C)OCCn1c(=S)n2c(=O)c3c1ccn3COC(=O)C(C)(C)CCCCC(C)(C)C(=O)OC2 [Example 118]
76

Next entry: CC(C)OCCn1c(=S)[nH]c(=O)c2c1ccn2COC(=O)c1ccccc1 [Example 116]
46

Next entry: CC(C)OCCn1c(=S)[nH]c(=O)c2c1ccn2COC(=O)CCN [Example 8]
68

Next entry: CC(C)OCCn1c(=S)[nH]c(=O)c2c1ccn2S(=O)(=O)c1ccccc1F [Example 79]
82

Next entry: CC(C)OCCn1c(=S)[nH]c(=O)c2c1ccn2COC(=O)NCC(F)(F)F [Example 100]
97
